I'd be grateful if you could share measured kcat/KM for these entries.
System Under Test: Factor X (FX), P00742
Sequence (P00742 whole entry, looked up): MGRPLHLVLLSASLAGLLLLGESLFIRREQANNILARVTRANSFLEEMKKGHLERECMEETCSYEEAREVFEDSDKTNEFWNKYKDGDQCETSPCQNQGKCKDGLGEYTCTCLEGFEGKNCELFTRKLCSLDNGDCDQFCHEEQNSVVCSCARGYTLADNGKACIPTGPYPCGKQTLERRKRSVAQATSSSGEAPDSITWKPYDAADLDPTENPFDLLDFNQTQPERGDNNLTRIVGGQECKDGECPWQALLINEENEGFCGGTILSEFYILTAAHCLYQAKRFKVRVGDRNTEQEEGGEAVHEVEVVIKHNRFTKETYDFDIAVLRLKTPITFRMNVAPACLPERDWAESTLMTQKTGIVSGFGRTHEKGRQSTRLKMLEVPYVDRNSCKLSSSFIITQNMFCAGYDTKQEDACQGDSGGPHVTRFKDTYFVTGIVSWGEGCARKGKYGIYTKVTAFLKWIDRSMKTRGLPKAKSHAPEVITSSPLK
Provide only the numeric value, understood in M⁻¹ s⁻¹.

Sample FIXa-D203N/F205T/E410N (protein) chain 1: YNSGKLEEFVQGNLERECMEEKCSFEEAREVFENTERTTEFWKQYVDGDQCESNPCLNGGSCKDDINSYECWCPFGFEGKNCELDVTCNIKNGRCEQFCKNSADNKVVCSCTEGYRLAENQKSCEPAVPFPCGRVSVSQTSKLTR chain 2: VVGGEDAKPGQFPWQVVLNGKVNATCGGSIVNEKWIVTAAHCVETGVKITVVAGEHNIEETEHTEQKRNVIRIIPHHNYNAAINKYNHDIALLELDEPLVLNSYVTPICIADKEYTNIFLKFGSGYVSGWGRVFHKGRSALVLQYLRVPLVDRATCLRSTKFTIYNNMFCAGFHEGGRDSCQGDSGGPHVTEVEGTSFLTGIISWGEECAMKGKYGIYTKVSRYVNWIKNKTKLT ; kcat/KM observed: 4.2e+07

Sample FIXa variant D203N/F205T/R318Y (protein) chain 1: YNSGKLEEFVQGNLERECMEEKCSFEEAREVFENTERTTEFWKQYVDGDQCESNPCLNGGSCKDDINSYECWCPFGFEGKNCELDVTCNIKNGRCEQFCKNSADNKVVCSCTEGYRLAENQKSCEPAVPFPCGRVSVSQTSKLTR chain 2: VVGGEDAKPGQFPWQVVLNGKVNATCGGSIVNEKWIVTAAHCVETGVKITVVAGEHNIEETEHTEQKRNVIRIIPHHNYNAAINKYNHDIALLELDEPLVLNSYVTPICIADKEYTNIFLKFGSGYVSGWGRVFHKGYSALVLQYLRVPLVDRATCLRSTKFTIYNNMFCAGFHEGGRDSCQGDSGGPHVTEVEGTSFLTGIISWGEECAMKGKYGIYTKVSRYVNWIKEKTKLT ; kcat/KM observed: 2e+07

Data provenance: patent US20210238260
